Reported reverse-splicing fitness values for a set of variants
B1: Azoarcus group I ribozyme (parent)
chain: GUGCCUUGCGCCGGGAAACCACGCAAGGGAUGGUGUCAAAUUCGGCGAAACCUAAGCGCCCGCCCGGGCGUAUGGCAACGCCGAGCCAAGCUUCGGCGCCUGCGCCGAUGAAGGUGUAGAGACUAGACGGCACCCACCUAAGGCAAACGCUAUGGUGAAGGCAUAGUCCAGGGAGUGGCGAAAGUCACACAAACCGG

Variants of: B1
Method: reverse-splicing fitness (ratio to wild type); higher = more active; in vitro selection; Mg2+ level not given

| Mutation Name | Experimental Readout | Endpoint Result |
| --- | --- | --- |
| C82U A120U C169G U176C | reverse-splicing fitness | 0.00306 |

Now look at this one.
Request the reported reverse-splicing fitness associated with A111C C169U
0.128
